systemTested: UniProt Q95PM0
Sequence (Q95PM0 whole entry): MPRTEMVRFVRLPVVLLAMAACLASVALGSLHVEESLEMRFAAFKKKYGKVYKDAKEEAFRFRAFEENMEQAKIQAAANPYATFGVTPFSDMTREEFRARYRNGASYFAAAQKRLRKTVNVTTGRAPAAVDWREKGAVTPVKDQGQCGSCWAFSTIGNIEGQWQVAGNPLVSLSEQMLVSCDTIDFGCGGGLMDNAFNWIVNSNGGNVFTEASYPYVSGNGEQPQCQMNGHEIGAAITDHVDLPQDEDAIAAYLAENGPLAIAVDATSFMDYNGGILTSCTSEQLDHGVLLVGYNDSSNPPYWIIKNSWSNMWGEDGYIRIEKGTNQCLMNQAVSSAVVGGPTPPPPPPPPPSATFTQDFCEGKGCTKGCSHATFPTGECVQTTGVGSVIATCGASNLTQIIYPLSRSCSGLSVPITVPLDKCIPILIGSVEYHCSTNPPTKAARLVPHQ
Label True when Ki is strictly below 9 µM; otherwise label False.

// below: answered compounds
- compound: "C=CCOC(=O)N[C@@H](Cc1ccccc1)C(=O)N1C[C@@H]2C(Br)=NO[C@@H]2C1"
  systemTested: "UniProt Q95PM0"
  assignedCategory: "False"
- compound: "CC(C)(C)OC(=O)N[C@@H](Cc1ccccc1)C(=O)N1CC2ON=C(Br)C2C1 (mixture of isomers)"
  systemTested: "UniProt Q95PM0"
  assignedCategory: "False"
- compound: "C=CCOC(=O)N[C@@H](CCc1ccccc1)C(=O)N1CC2ON=C(Br)C2C1 (mixture of isomers)"
  systemTested: "UniProt Q95PM0"
  assignedCategory: "True"
- compound: "O=C(N[C@@H](Cc1ccccc1)C(=O)N1CC2ON=C(Br)C2C1)OCc1ccccc1 (mixture of isomers)"
  systemTested: "UniProt Q95PM0"
  assignedCategory: "True"
- compound: "C=CCOC(=O)N[C@@H](CCc1ccccc1)C(=O)N1C[C@@H]2C(Br)=NO[C@@H]2C1"
  systemTested: "UniProt Q95PM0"
  assignedCategory: "True"
- compound: "C=CCOC(=O)N[C@@H](CC(C)C)C(=O)N1C[C@@H]2C(Br)=NO[C@@H]2C1"
  systemTested: "UniProt Q95PM0"
  assignedCategory: "True"

[Q] Is it true that Ki reported for C=CCOC(=O)N[C@@H](Cc1ccccc1)C(=O)N1C[C@@H]2ON=C(Br)[C@@H]2C1 is less than 9 µM?
[A] False

[Q] Is it true that Ki reported for O=C(N[C@@H](CCc1ccccc1)C(=O)N1C[C@@H]2C(Br)=NO[C@@H]2C1)OCc1ccc([N+](=O)[O-])cc1 is less than 9 µM?
[A] True

Sourced from ChEMBL document CHEMBL3627659
